All values here come from PubChem BioAssay (Tox21).

METHOD: qHTS assay to identify small molecule antagonists of the estrogen receptor alpha (ER-alpha) signaling pathway using the BG1 cell line in the presence of 0.1 nM 17-beta-estradiol - cell viability counter screen (AID 1259241); also: nearly all actives have a fitted effect of over 40% in size
TEST_PARAMETERS: VM7Luc4E2 (BG1) viability, CellTiter-Fluor protease, 22 h, 0.1 nM estradiol agonist added; series mostly up to 92.4 µM
Records with an inconclusive call do not appear. Calls of active or inactive are those of the source. Calls follow the shape of the dose curve; as a rule, active = well fitted cell-killing curve with a large enough effect in the repeat runs; inconclusive = weak or mixed curves, or effect the other way; inactive = flat fitted curve, though single readings scatter.
Entry note: the call must match one of t = active, f = inactive

| COMPOUND_SMILES | QUALITATIVE_LABEL |
| --- | --- |
| CCCCCCOc1ccc(O)cc1 | f |

# next compound below
Problem: Tell me the assay call for CC(C)c1ccc(O)c(C(C)C)c1 please.
Solution: f
